- target under test: Chk1 (Homo sapiens)
- Construct: purchased Upstate Biotechnology
- test summary: Chk1 kinase assay: incorporation of γ-33P ATP into immobilized myelin basic protein
- Assay type: biochemical
- run parameters: read-out: Chk1 IC50
- Procedure: Chk1 and Chk2 assays were performed by measuring incorporation of γ-^33P ATP into immobilized myelin basic protein (MBP). […] Each data point was measured in duplicate, and at least two duplicate assays were performed for each individual compound determination. […] The above assay procedure can be used to determine the IC50 for inhibition and/or the inhibition constant Ki. […] The Ki for a compound may be determined from the IC50 based on three assumptions. […]
pIC50: −log10 of the molar value.
value kind: pIC50

In [3]: df
Out[3]:
                                    compound  endpoint_result
 0  CNC(=O)c1nc(-c2cccc(C(=O)NCC(c3ccccc3)c3ccccc3)c2)cnc1N [Example 263]     6.00 to 7.30
 1  CNC(=O)c1nc(-c2cccc(C(=O)NCc3ccc(OC)cc3)c2)cnc1N [Example 95]     6.00 to 7.30
 2  CNC(=O)c1nc(-c2cccc(C(=O)NCc3c(F)ccc(Cl)c3F)c2)cnc1N [Example 282]     6.00 to 7.30
 3  CNC(=O)c1nc(-c2cccc(C(=O)N3CCN(C)CC3)c2)cnc1N [Example 93]     5.00 to 6.00
 4  CNC(=O)c1nc(-c2cccc(C(=O)NCc3ccccc3-c3ccc(F)cc3)c2)cnc1N [Example 280]     6.00 to 7.30
 5  CCCN(CCOc1cccc(-c2cnc(N)c(C(=O)NC)n2)c1)CC1CC1 [Example 186]     6.00 to 7.30
 6  CNC(=O)c1nc(-c2cccc(CNCc3ccc(-c4ccccc4)cc3)c2)cnc1N [Example 382]     6.00 to 7.30
 7  CNC(=O)c1nc(-c2cccc(CNCc3c(F)cccc3F)c2)cnc1N [Example 402]     6.00 to 7.30
 8  CNC(=O)c1nc(-c2cccc(C(=O)N(C)Cc3ccccc3)c2)cnc1N [Example 99]     5.00 to 6.00
 9  CNC(=O)c1nc(-c2cccc(C(=O)NCCNc3ccccc3)c2)cnc1N [Example 412]     6.00 to 7.30
10  CNC(=O)c1nc(-c2cccc(C(=O)NCC3CCN(C(=O)OC(C)(C)C)C3)c2)cnc1N (stereo not shown) [Example 364]     6.00 to 7.30
11  CCCCc1ccc(CNC(=O)c2cccc(-c3cnc(N)c(C(=O)NC)n3)c2)cc1 [Example 375]     6.00 to 7.30
12  CNC(=O)c1nc(-c2cccc(NC(=O)Cc3ccc(Cl)cc3Cl)c2)cnc1N [Example 209]           > 7.30
13  CNC(=O)c1nc(-c2ccc(C(=O)OCc3ccccc3)cc2)cnc1N [Example 149]           ≤ 5.00
14  CNC(=O)c1nc(-c2cccc(C(=O)N[C@H]3CCc4ccccc43)c2)cnc1N [Example 97]     6.00 to 7.30
15  CNC(=O)c1nc(-c2cccc(C(=O)NCc3ccc(F)cc3)c2)cnc1N [Example 103]     6.00 to 7.30
16  CNC(=O)c1nc(-c2cccc(CNC(=O)c3ccc(C(C)(C)C)cc3)c2)cnc1N [Example 378]     6.00 to 7.30
17  CNC(=O)c1nc(-c2ccc(C(=O)NCc3ccc(C)cc3)cc2)cnc1N [Example 153]     6.00 to 7.30
18  NC(=O)c1nc(-c2cccc(F)c2)cnc1N [Example 19]           ≤ 5.00

====

- target under test: Chk1 (Homo sapiens)
- Construct: purchased Upstate Biotechnology
- test summary: Chk1 kinase assay: incorporation of γ-33P ATP into immobilized myelin basic protein
- Type: biochemical
- run parameters: read-out: Chk1 IC50
pIC50: −log10 of the molar value.
value kind: pIC50

In [3]: df
Out[3]:
                           structure_smiles  endpoint_result
0  CNC(=O)c1nc(-c2cccc(C(=O)NCC(C)(C)C)c2)cnc1N     5.00 to 6.00
1  CNC(=O)c1nc(-c2cccc(C(=O)N[C@@H]3CCN(Cc4ccc(Cl)cc4)C3)c2)cnc1NCc1ccc(Cl)cc1     6.00 to 7.30
2  CNC(=O)c1nc(-c2cccc(C(=O)NCc3ccc(I)cc3)c2)cnc1N           > 7.30
3  CNC(=O)c1nc(-c2cccc(C(=O)NCc3ccc(Cl)c(C(F)(F)F)c3)c2)cnc1N     6.00 to 7.30
4  CNC(=O)c1nc(-c2cccc(CNCc3ccc(-c4cccs4)cc3)c2)cnc1N           > 7.30
5  CNC(=O)c1nc(-c2cccc(CNCc3ccccc3N3CCCCC3)c2)cnc1N     6.00 to 7.30

====

- target under test: Chk1 (Homo sapiens)
- Construct: purchased Upstate Biotechnology
- Sequence (O14757 1-476): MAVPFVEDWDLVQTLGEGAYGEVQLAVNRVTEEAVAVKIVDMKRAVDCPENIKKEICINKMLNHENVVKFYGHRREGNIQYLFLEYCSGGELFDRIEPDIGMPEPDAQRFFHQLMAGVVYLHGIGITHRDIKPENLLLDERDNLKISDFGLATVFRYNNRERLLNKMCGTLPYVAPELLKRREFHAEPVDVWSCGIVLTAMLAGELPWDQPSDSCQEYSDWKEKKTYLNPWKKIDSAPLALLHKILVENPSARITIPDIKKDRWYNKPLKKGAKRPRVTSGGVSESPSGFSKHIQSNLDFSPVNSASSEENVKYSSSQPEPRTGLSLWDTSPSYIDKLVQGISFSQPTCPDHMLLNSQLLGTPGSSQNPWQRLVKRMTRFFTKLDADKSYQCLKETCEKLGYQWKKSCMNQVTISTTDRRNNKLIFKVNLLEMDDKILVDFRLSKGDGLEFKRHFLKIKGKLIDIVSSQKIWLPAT
- test summary: Chk1 kinase assay: incorporation of γ-33P ATP into immobilized myelin basic protein
- Format: biochemical
- run parameters: Table 11; Chk1 only; read-out: Chk1 IC50
value kind: IC50

>>> df
                                   compound  value_kind  endpoint_result
0  CNC(=O)c1nc(-c2cccc(C(=O)NNc3c(F)c(F)cc(F)c3F)c2)cnc1N [Example 434]        IC50    50 to 1000 nM
1  C[C@@H](NC(=O)c1cccc(-c2cnc(N)c(C(=O)N[C@H]3CCN(C(=O)OC(C)(C)C)C3)n2)c1)c1ccccc1 [Example 710]        IC50       ≥ 10000 nM
2  Nc1ncc(-c2cccc(CN[C@H]3CCc4ccccc43)c2)nc1-c1nc([C@@H]2CCCNC2)n[nH]1 [Example 705]        IC50          < 50 nM
3  CNC(=O)c1nc(-c2cccc(CN[C@@H]3CCN(Cc4ccccc4)C3)c2)cnc1N [Example 438]        IC50    50 to 1000 nM

====

- target under test: Chk1 (Homo sapiens, UniProt O14757)
- Construct: purchased Upstate Biotechnology
- test summary: Chk1 kinase assay: incorporation of γ-33P ATP into immobilized myelin basic protein
- Assay type: biochemical
- run parameters: Table 11; Chk1 only; read-out: Chk1 IC50
value kind: IC50

                                    compound   endpoint_result
 0  CNC(=O)c1nc(-c2cccc(CNC3CCc4cc(-c5cc(C)cs5)ccc43)c2)cnc1N (stereo not drawn) [Example 496]           < 50 nM
 1  Nc1ncc(-c2cccc(C(=O)NCc3ccccc3)c2)nc1/C=N/NCc1ccccc1 [Example 675]        ≥ 10000 nM
 2  CNC(=O)c1nc(-c2cccc(CNC3CCc4c(F)ccc(F)c43)c2)cnc1N (stereo not drawn) [Example 469]     50 to 1000 nM
 3  Nc1ncc(-c2cccc(CN[C@H]3CCc4ccccc43)c2)nc1C(=O)NCCCn1ccnc1 [Example 586]     50 to 1000 nM
 4  CNC(=O)c1cc(-c2cccc(CNC3CCc4cc(F)c(F)cc43)c2)cnc1N (stereo not drawn) [Example 523]     50 to 1000 nM
 5  Nc1ncc(-c2cccc(CO)c2)nc1-c1nc(C2CCNC2)n[nH]1 (stereo not drawn) [Example 643]     50 to 1000 nM
 6  NNC(=O)c1nc(-c2cccc(CN[C@H]3CCc4ccccc43)c2)cnc1N [Example 529]     50 to 1000 nM
 7  CN(C)C(=O)c1nc(-c2cccc(CN[C@H]3CCc4ccccc43)c2)cnc1N [Example 554]     50 to 1000 nM
 8  CNC(=O)c1nc(-c2ccc3ccnc(N[C@H]4CCc5ccccc54)c3c2)cnc1N [Example 525]     50 to 1000 nM
 9  CC(C)(C)OC(=O)N1CC[C@H](NC(=O)c2nc(-c3cccc(C(=O)NC(C)(C)c4ccccc4)c3)cnc2N)C1 [Example 800]        ≥ 10000 nM
10  Nc1ncc(-c2cccc(C(=O)N[C@H]3CCc4ccccc43)c2)nc1C(=O)NC[C@@H]1CCNC1 [Example 753]           < 50 nM
11  CNC(=O)c1nc(-c2cccc(CNC3CCc4c(Br)cccc43)c2)cnc1N (stereo not drawn) [Example 492]           < 50 nM
12  Nc1ncc(-c2cccc(C(=O)NCc3ccccc3)c2)nc1/C=N/NCCO [Example 677]  1000 to 10000 nM
13  Nc1ncc(-c2cccc(C(=O)NCc3ccccc3)c2)nc1C(=O)NCCCNC(=O)c1ccc(C(F)(F)F)nc1 [Example 652]        ≥ 10000 nM
14  CNC(=O)c1nc(-c2cccc(CNCc3ccc(-c4ccco4)cc3F)c2)cnc1N [Example 451]           < 50 nM
15  C/C(=N\N1CCCCCC1)c1nc(-c2cccc(C(=O)NCc3ccccc3)c2)cnc1N [Example 674]     50 to 1000 nM
16  CCN1CC[C@H](NC(=O)c2nc(-c3cccc(C(=O)N[C@H]4CCc5ccccc54)c3)cnc2N)C1 [Example 706]     50 to 1000 nM
17  C/C(=N\NC(=N)N)c1nc(-c2cccc(C(=O)NCc3ccccc3)c2)cnc1N [Example 633]  1000 to 10000 nM
18  C/C(=N\Nc1ccccn1)c1nc(-c2cccc(C(=O)NCc3ccccc3)c2)cnc1N [Example 632]        ≥ 10000 nM
19  CNC(=O)c1cc(-c2cccc(CN[C@H]3CCc4ccccc43)c2)cnc1N [Example 509]     50 to 1000 nM
20  CC(=O)NCCNC(=O)c1nc(-c2cccc(C(=O)NCc3ccccc3)c2)cnc1N [Example 661]  1000 to 10000 nM
